Data origin: patent US20240270828A1

# system_tested: T1, SARS-CoV-2 S2 (40590-V08B, Sino Biological) (SARS-CoV-2, UniProt P0DTC2 686-1213)
# T1 construct: domain: S2
# protocol_description: ELISA, hmAb at 10 and 1 ug/ml in duplicate; AUC
measured_metric: Binding AUC

binder	Binding AUC
1246H7 (antibody, V domains shown) VH: QVQLQQSGPGLMKPSETLSLTCTVSGGSISSSSYYWGWIRQPPGKGLEWIGSIYYSGATYYNPSLKSRVTISVDTSKNQLSLKLSSVTAADTAVYYCVNRYYDYVWGSWGVDCWGQGTLVTVSS VL: QAGLTQPRSVSGSPGQSVTISCTGTSSDVGGYNYVSWYQQHPGKAPKLMIYDVNKRPSGVPDRFSGSKSGNTASLTISGLQAEDEADYFCCSYAGSYTYWVFGGGTKLTVL	4.8
1242C6 (antibody, V domains shown, Recombinant human IgG1) VH: EVQLVQSGAEVKKPGASVKVSCKASGFTFSDYYMHWVRQAPRQGLEWMGLINPSGSGTAYAQNFQGRVTLTRDTSTSTLYMEMGSLTSDDTAVYYCARMDSSGSYDHWGQGTLVTVSS VL: DIVMTQSPGTLSLSPGDRATLSCRASQTIRISYLAWYQQKPGQAPRLLVYGPSIRATGIPDRFSASGSGTDFTLTISRLEPEDFAVYYCQHYGSSPPRYTFGQGTKLEIK	26.7

Alright, here's another binder for you.
Short answer for 1242D11 (antibody, V domains shown) VH: QVQLVQSGGGLVQPGGSLRLSCAVSGFTFSSYWMSWVRQAPGKGLEWVANIKQDGSEKYYVDSVKGRFTISRDNAKNSLFLQMNSLRAEDTAVYYCAREAVGYYYDSRGYHYSWYFDLWGRGTLVTVSS VL: EIVLTQSPGTLSLSPGERATLSCRASQSVSSSYLVWYQQKPGQAPRLLIFGASSRATGIPDRFSGSGSGTDFTLTISSLEPEDFAVYYCQHYGSSPPMYTFGQGTKLEIK : Binding AUC was 24.4
